# System: Excherichia coli LL 311
# measurement protocol: In vitro antibacterial MIC, agar plate dilution
# Format: cell-based
# settings: 18 h, Table II, read-out: MIC
readout type: MIC (µg/mL)
Express it in µg/mL; write the number only.

1) CCn1cc(C(=O)O)c(=O)c2cc(F)c(N[C@@H]3CCCC[C@@H]3O)cc21 (relative stereo) [Example 5]; 16
2) CCn1cc(C(=O)O)c(=O)c2cc(F)c(N[C@@H]3CCCC[C@H]3N)cc21 (relative stereo) [Example 8]; 32
3) N[C@H]1CCC[C@H]1Nc1cc2c(cc1F)c(=O)c(C(=O)O)cn2-c1ccc(F)cc1 (relative stereo) [Example 3]; 1

Please turn your attention to the following entry.
Note down MIC recorded for CCn1cc(C(=O)O)c(=O)c2cc(F)c(N[C@@H]3CCC[C@@H]3N)cc21 (relative stereo) [Example 4]
2

====

# Tested on: Serratia marcescens CMC 83-74
readout type: MIC

Some solved entries appear below for comparison.
1. N[C@H]1CCC[C@H]1Nc1cc2c(cc1F)c(=O)c(C(=O)O)cn2C1CC1 (relative stereo); > 16 mg/L
2. N[C@H]1CCC[C@H]1Nc1cc2c(cc1F)c(=O)c(C(=O)O)cn2-c1ccc(F)cc1 (relative stereo); > 16 mg/L
3. CCn1cc(C(=O)O)c(=O)c2cc(F)c(N[C@@H]3CCC[C@@H]3N)cc21 (relative stereo); > 16 mg/L

Please turn your attention to the following entry.
Report the value of MIC obtained on Serratia marcescens CMC 83-74 for N[C@H]1CCCC[C@H]1Nc1cc2c(cc1F)c(=O)c(C(=O)O)cn2C1CC1 (relative stereo) .
16 mg/L

====

# System: Moranella morganii VGH 84-12
# measurement protocol: In vitro antibacterial MIC, agar plate dilution
# Assay type: cell-based
# settings: Mueller-Hinton agar, 10^4 CFU, 18 hours, 35° C.
readout type: MIC (µg/mL)
Express it in µg/mL; write the number only.

1) N[C@H]1CCC[C@H]1Nc1cc2c(cc1F)c(=O)c(C(=O)O)cn2C1CC1 (relative stereo); 4
2) N[C@H]1CCC[C@H]1Nc1cc2c(cc1F)c(=O)c(C(=O)O)cn2-c1ccc(F)cc1 (relative stereo); 4
3) CCn1cc(C(=O)O)c(=O)c2cc(F)c(N[C@@H]3CCC[C@@H]3N)cc21 (relative stereo); 2

Please turn your attention to the following entry.
Note down MIC recorded for N[C@H]1CCCC[C@H]1Nc1cc2c(cc1F)c(=O)c(C(=O)O)cn2C1CC1 (relative stereo)
1

====

# Test system: Staphylococcus aureus VGH 84-47
Measured MIC, listed per entry for reference.
Give the figure together with its unit, number first.

Some solved entries appear below for comparison.
1. N[C@H]1CCC[C@H]1Nc1cc2c(cc1F)c(=O)c(C(=O)O)cn2-c1ccc(F)cc1 (relative stereo); 4 µg/mL
2. N[C@H]1CCC[C@H]1Nc1cc2c(cc1F)c(=O)c(C(=O)O)cn2C1CC1 (relative stereo); 4 µg/mL
3. N[C@H]1CCCC[C@H]1Nc1cc2c(cc1F)c(=O)c(C(=O)O)cn2C1CC1 (relative stereo); 2 µg/mL

Report the value of MIC obtained on Staphylococcus aureus VGH 84-47 for CCn1cc(C(=O)O)c(=O)c2cc(F)c(N[C@@H]3CCC[C@@H]3N)cc21 (relative stereo) .
2 µg/mL
